Measured pEC50, listed per entry.
test system: Cryptosporidium parvum; assay: Antiparasitic activity against Cryptosporidium parvum BGF infected in human HCT8 cells incubated for 48 hrs by FITC/DAPI staining based fluorescence assay; type: functional, organism-based; settings: HCT-8, 48 h
Hey, just a heads up that pEC50 is the negative log base 10 of the concentration in molar.

Sample records with pEC50:
• COC(=O)[C@H]1O[C@@H]2C[C@H]3O[C@@H](n4cnc5c(N)ncnc54)[C@H](OC)[C@H]3O[C@@]2(O)[C@@H](O)[C@@H]1O = 5.06
• COc1ccc(C[C@H](N)C(=O)N[C@H]2[C@@H](O)[C@H](n3cnc4c(N(C)C)ncnc43)O[C@@H]2CO)cc1 = 6.26

Task: Param item = CC(=O)Oc1ccccc1C(=O)Nc1ncc([N+](=O)[O-])s1 [NITAZOXANIDE] ; retrieve measured pEC50.
Result: 5.54
